system_tested: membrane-bound phosphatase activities of washed cortical membrane
experimental_details: LC-MS/MS phosphatase assay with effectors, N-terminal phosphopeptide pI2α1N-P as substrate
Format: biochemical
test_conditions: substrate pI2α1N-P, 1 mM Mg2+, 30°C, 10 min; read-out: IC50
Kindly state IC50 for each of the entries shown.

Query string: Give the reported value of IC50 for this record: [Ca+2].[Cl-].[Cl-] [Ca^2+, CaCl2]
Result string: ~5 mM

Query string: Hello, please tell me recorded IC50 for this one: NCCCNCCCCNCCCN [Spermine, spermine]
Result string: > 10 mM

Query string: Let me know recorded IC50 for [F-].[Na+] [fluoride (F^−), sodium fluoride] , thanks.
Result string: ~2 mM
